Percent inhibition of Factor 11 mRNA at 1,500 nM values by entry
Tested on: human Factor 11 mRNA
TEST_PROTOCOL: Dose-dependent inhibition of human Factor 11 in HepG2 cells, electroporation 375-12,000 nM (Example 32)
Type: cell-based
SETUP_CONDITIONS: electroporation, 1,500 nM, approx. 16 hours, relative to untreated control cells
Strand notation (5' to 3'): a small letter for the sugar, then the base; units joined by * are phosphorothioate-linked, units joined directly phosphodiester-linked; [ ] holds rarer units or linkages, { } end groups; capitals alone tell only the bases. e = 2'-O-(2-methoxyethyl) (MOE); [5mC] = 5-methylcytosine; d = 2'-deoxy (DNA)
Report as a plain number; the unit % is understood.

Q: Quick one: Percent inhibition of Factor 11 mRNA at 1,500 nM of 449710 (antisense e[5mC]*eA*e[5mC]*dA*dG*dT*dT*dT*d[5mC]*dT*dG*dG*d[5mC]*eA*eG*eG) [compound 449710] ?
Result: 52

Q: Record request: Percent inhibition of Factor 11 mRNA at 1,500 nM value, item 449708 (antisense eA*e[5mC]*eA*dG*dT*dT*dT*d[5mC]*dT*dG*dG*e[5mC]*eA*eG) [compound 449708]
Result: 22

Q: Sample 445522 (antisense eG*e[5mC]*eA*e[5mC]*eA*dG*dT*dT*dT*d[5mC]*dT*dG*dG*e[5mC]*eA*eG*eG*e[5mC]) [compound 445522] — what was its Percent inhibition of Factor 11 mRNA at 1,500 nM?
Result: 83

Q: Record request: Percent inhibition of Factor 11 mRNA at 1,500 nM value, item 416850 (antisense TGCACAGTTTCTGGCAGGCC; 5-10-5 gapmer, further chemistry not given here) [compound 416850]
Result: 69

Q: Quick one: Percent inhibition of Factor 11 mRNA at 1,500 nM of 449707 (antisense e[5mC]*eA*e[5mC]*eA*dG*dT*dT*dT*d[5mC]*dT*dG*dG*e[5mC]*eA*eG*eG) [compound 449707] ?
Result: 63

Q: For 449711 (antisense eA*e[5mC]*dA*dG*dT*dT*dT*d[5mC]*dT*dG*dG*d[5mC]*eA*eG) [compound 449711] , what is its reported Percent inhibition of Factor 11 mRNA at 1,500 nM?
Result: 1
